All figures here come from patent US20240092784A1.

Reported values of pIC50 for individual entries
# Target or system: human SPR (Homo sapiens (Human))
# Sequence (P35270 whole entry): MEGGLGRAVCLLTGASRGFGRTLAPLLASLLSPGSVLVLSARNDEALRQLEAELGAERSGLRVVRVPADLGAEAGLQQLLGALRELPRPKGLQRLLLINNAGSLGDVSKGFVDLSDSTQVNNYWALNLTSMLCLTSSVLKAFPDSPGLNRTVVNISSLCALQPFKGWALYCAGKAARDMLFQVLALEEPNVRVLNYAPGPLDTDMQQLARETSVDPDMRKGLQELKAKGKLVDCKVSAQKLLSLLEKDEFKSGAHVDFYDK
# Procedure details: Evaluation Example 2: Measurement of human SPR inhibitory activity (seven concentrations, sepiapterin absorbance at 420 nm)
# Assay type: biochemical
# Condition info: Evaluation Example 2, seven concentrations 0.14 nM to 100 nM, 240 minutes at room temperature, read-out: IC50
Formally, pIC50 is defined as -log10 of the concentration c, with c in mol/L.

Record excerpt, results attached:
Given the molecule CC(C)Cn1c(=O)c(C(=O)NC2CC2)c(O)n2ncc(/C=C/C(=O)N3CCC(F)(F)C3)c12 [compound 453] , write its reported pIC50.
9.09

Indicate the recorded pIC50 value for this molecule: CC(C)(C)Cn1c(=O)c(C(=O)NC2CC2)c(O)n2nc3ncccc3c12 [Synthesis Example 391]
9.04

Output pIC50 of CC(C)Cn1c(=O)c(C(=O)NC2CC2)c(O)n2ncc(/C=C/C(=O)N3CCC(F)(F)CC3)c12 [compound 464]
9.10

More entries:
Indicate its recorded pIC50; the molecule in question is Cc1nn2c(O)c(C(=O)NC3CC3)c(=O)n(CC(C)C)c2c1/C=C/C(=O)N1CCC(F)(F)C1 [compound 565]
9.03

Given COC(=O)Nc1nn2c(O)c(C(=O)NC3CC3)c(=O)n(CC(C)C)c2c1/C=C/C(=O)N1CCOCC1 [Synthesis Example 425] , respond with its pIC50.
9.11
